What dpm was measured for each of the following?
Assay: Stability of chelates to autoclaving (CM-Sephadex assay)
Format: physicochemical
Conditions: autoclaved 30 minutes at 121° C.; Fraction 3: column and contents (retained)
Give bare numbers, in dpm.

Here's what some known entries look like.
{"Smiles entry": "O=C([O-])CN1CCN(CC(=O)[O-])CCN(CC(=O)[O-])CCN(CC(=O)[O-])CC1.[La+3]", "Number": 0}
{"Smiles entry": "O=C([O-])CN1CCN(CC(=O)[O-])CCN(CC(=O)[O-])CCN(CC(=O)[O-])CC1.[Eu+3]", "Number": 0}
{"Smiles entry": "O=C([O-])CN(CCN(CC(=O)[O-])CC(=O)[O-])CCN(CC(=O)[O-])CC(=O)[O-].[Sm+3]", "Number": 1867}
{"Smiles entry": "O=C([O-])CN(CCN(CC(=O)[O-])CC(=O)[O-])CCN(CC(=O)[O-])CC(=O)[O-].[La+3]", "Number": 0}
{"Smiles entry": "O=C([O-])CN1CCN(CC(=O)[O-])CCN(CC(=O)[O-])CCN(CC(=O)[O-])CC1.[Sm+3]", "Number": 0}

Data request: For the compound "O=C([O-])CN(CCN(CC(=O)[O-])CC(=O)[O-])CCN(CC(=O)[O-])CC(=O)[O-].[Eu+3]" , give its reported dpm.
Data returned: 0

###

Test: Assay of chelate on carboxymethyl (CM) Sephadex column (chelate formation, charge)
Type: physicochemical
Conditions: DOTA chelates; Fraction 2: further 3 ml 0.01M Tris pH 7.5
What % of total was measured for each of the following?

{"Compound": "O=C([O-])CN1CCN(CC(=O)[O-])CCN(CC(=O)O)CCN(CC(=O)[O-])CC1.[Gd+3] [Gd-DOTA, reference compound]", "% of total": "0 % of total"}
{"Compound": "O=C([O-])CN1CCN(CC(=O)[O-])CCN(CC(=O)[O-])CCN(CC(=O)[O-])CC1.[Eu+3]", "% of total": "<1 % of total"}
{"Compound": "O=C([O-])CN1CCN(CC(=O)[O-])CCN(CC(=O)[O-])CCN(CC(=O)[O-])CC1.[La+3]", "% of total": "3 % of total"}

Data request: For the compound "O=C([O-])CN1CCN(CC(=O)[O-])CCN(CC(=O)[O-])CCN(CC(=O)[O-])CC1.[Sm+3]" , give its reported % of total.
Data returned: 2 % of total

###

Assay: Stability of chelates to autoclaving (CM-Sephadex assay)
Assay type: physicochemical
Details: autoclaved 30 minutes at 121° C.; Fraction 2: 3 ml 0.01M Tris pH 7.5
Measurement label: % of total

Here's what some known entries look like.
{"Molecule": "O=C([O-])CN(CCN(CC(=O)[O-])CC(=O)[O-])CCN(CC(=O)[O-])CC(=O)[O-].[Sm+3] [Sm-DTPA]", "% of total": "2 % of total"}
{"Molecule": "O=C([O-])CN1CCN(CC(=O)[O-])CCN(CC(=O)[O-])CCN(CC(=O)[O-])CC1.[Sm+3] [Sm-DOTA]", "% of total": "2 % of total"}
{"Molecule": "O=C([O-])CN1CCN(CC(=O)[O-])CCN(CC(=O)[O-])CCN(CC(=O)[O-])CC1.[Eu+3] [Eu-DOTA]", "% of total": "<1 % of total"}

Hi, could you look up % of total for each item in my list?
1. O=C([O-])CN(CCN(CC(=O)[O-])CC(=O)[O-])CCN(CC(=O)[O-])CC(=O)[O-].[La+3] [La-DTPA]
2. O=C([O-])CN(CCN(CC(=O)[O-])CC(=O)[O-])CCN(CC(=O)[O-])CC(=O)[O-].[Eu+3] [Eu-DTPA]
3. O=C([O-])CN1CCN(CC(=O)[O-])CCN(CC(=O)[O-])CCN(CC(=O)[O-])CC1.[La+3] [La-DOTA]

Data returned:
["3 % of total", "3 % of total", "<1 % of total"]

###

What % of total was measured for each of the following?
Assay: Stability of chelates to autoclaving (CM-Sephadex assay)
Assay type: physicochemical
Conditions: autoclaved 30 minutes at 121° C.; Fraction 1: sample diluted 1:10 then 2-3 ml 0.01M Tris pH 7.5 (eluate)
Procedure: A sample comprising 5 ml of Sm-DTPA, La-DTPA, and Eu-DTPA prepared in Examples 9, 10, and 11 were placed in 10 ml glass bottles, each capped with a grey butyl rubber cap, and the caps were crimped. Samples were autoclaved for 30 minutes at 121° C. Five ml of each of Sm-DOTA, La-DOTA, and Eu-DOTA prepared in Examples 13, 14, and 15 were placed in 10 ml glass bottles capped with a grey butyl rubber cap and crimped. Samples were autoclaved for 30 minutes at 121° C. […]

{"Compound": "O=C([O-])CN1CCN(CC(=O)[O-])CCN(CC(=O)[O-])CCN(CC(=O)[O-])CC1.[Sm+3] [Sm-DOTA]", "% of total": "98 % of total"}
{"Compound": "O=C([O-])CN1CCN(CC(=O)[O-])CCN(CC(=O)[O-])CCN(CC(=O)[O-])CC1.[Eu+3] [Eu-DOTA]", "% of total": "100 % of total"}
{"Compound": "O=C([O-])CN(CCN(CC(=O)[O-])CC(=O)[O-])CCN(CC(=O)[O-])CC(=O)[O-].[Eu+3] [Eu-DTPA]", "% of total": "97 % of total"}
{"Compound": "O=C([O-])CN1CCN(CC(=O)[O-])CCN(CC(=O)[O-])CCN(CC(=O)[O-])CC1.[La+3] [La-DOTA]", "% of total": "100 % of total"}
{"Compound": "O=C([O-])CN(CCN(CC(=O)[O-])CC(=O)[O-])CCN(CC(=O)[O-])CC(=O)[O-].[Sm+3] [Sm-DTPA]", "% of total": "98 % of total"}

Kindly consider the entry below.
Data request: For the compound O=C([O-])CN(CCN(CC(=O)[O-])CC(=O)[O-])CCN(CC(=O)[O-])CC(=O)[O-].[La+3] [La-DTPA] , give its reported % of total.
Data returned: 97 % of total

###

Experiment: Stability of chelates in rat serum (CM-Sephadex assay, serum binding)
Conditions: 24 hours in rat serum at room temperature; Fraction 3: column and contents (retained)
What % of total was measured for each of the following?

Here's what some known entries look like.
{"Compound": "O=C([O-])CN(CCN(CC(=O)[O-])CC(=O)[O-])CCN(CC(=O)[O-])CC(=O)[O-].[La+3] [La-DTPA]", "% of total": "0 % of total"}
{"Compound": "[Cl][Sm]([Cl])[Cl] [Samarium chloride, reference compound]", "% of total": "49 % of total"}
{"Compound": "[Cl][La]([Cl])[Cl] [Lanthanum chloride, reference compound]", "% of total": "44 % of total"}
{"Compound": "[Cl][Eu]([Cl])[Cl] [Europium chloride, reference compound]", "% of total": "52 % of total"}

Kindly consider the entry below.
Data request: For the compound O=C([O-])CN(CCN(CC(=O)[O-])CC(=O)[O-])CCN(CC(=O)[O-])CC(=O)[O-].[Eu+3] [Eu-DTPA] , give its reported % of total.
Data returned: 0 % of total

###

Assay: Stability of chelates to autoclaving (CM-Sephadex assay)
Format: physicochemical
Conditions: autoclaved 30 minutes at 121° C.; Fraction 2: 3 ml 0.01M Tris pH 7.5
What dpm was measured for each of the following?
Put your answer as a value accompanied by its unit after it.

Here's what some known entries look like.
{"Smiles entry": "O=C([O-])CN(CCN(CC(=O)[O-])CC(=O)[O-])CCN(CC(=O)[O-])CC(=O)[O-].[Sm+3]", "Result": "26387 dpm"}
{"Smiles entry": "O=C([O-])CN1CCN(CC(=O)[O-])CCN(CC(=O)[O-])CCN(CC(=O)[O-])CC1.[La+3]", "Result": "11 dpm"}
{"Smiles entry": "O=C([O-])CN(CCN(CC(=O)[O-])CC(=O)[O-])CCN(CC(=O)[O-])CC(=O)[O-].[Eu+3]", "Result": "13226 dpm"}
{"Smiles entry": "O=C([O-])CN1CCN(CC(=O)[O-])CCN(CC(=O)[O-])CCN(CC(=O)[O-])CC1.[Eu+3]", "Result": "1226 dpm"}
{"Smiles entry": "O=C([O-])CN(CCN(CC(=O)[O-])CC(=O)[O-])CCN(CC(=O)[O-])CC(=O)[O-].[La+3]", "Result": "12180 dpm"}

Kindly consider the entry below.
Data request: For the compound "O=C([O-])CN1CCN(CC(=O)[O-])CCN(CC(=O)[O-])CCN(CC(=O)[O-])CC1.[Sm+3]" , give its reported dpm.
Data returned: 27521 dpm
